assay-procedure: Half life in Wistar rat at 10 mg/kg, ip
Format: ADME, organism-based
Design: dose 10 mg/kg, route intraperitoneal
reported-conditions: in vivo
value-kind: half-life (min)
Express it in min; write the number only.

For the compound Cl.O=C(CCCCN1CCOCC1)Nc1ccc(-c2cccnc2)cc1 , what half-life is on record?
48

###

measured-target: Neuronal acetylcholine receptor subunit alpha-7 (Rattus norvegicus)
assay-procedure: Agonist activity at rat alpha7 nAChR expressed in rat GH4C1 cells assessed as calcium flux by FLIPR assay
Format: functional, cell-based, GH4-C1
value-kind: EC50 (µM)
Output spec: scalar in µM, unitless text.

Request body: readout EC50, system Neuronal acetylcholine receptor subunit alpha-7 (Rattus norvegicus), query O=C(CCCCN1CCCCC1)Nc1ccc2ncccc2c1 . Return the value.
5.07

Notebook entry, Neuronal acetylcholine receptor subunit alpha-7 (Rattus norvegicus) assay: EC50 of O=C(CCCCN1CCCCC1)Nc1ccc(Br)cc1 = ?
1.35

Report EC50 for COc1ccc(N2CCN(CCCCNC(=O)c3ccc(-c4ccccc4OC)cc3)CC2)c(OC)c1 tested on Neuronal acetylcholine receptor subunit alpha-7 (Rattus norvegicus).
2.91

Request: EC50, test system Neuronal acetylcholine receptor subunit alpha-7 (Rattus norvegicus), entry CC(=O)N1CCN(CCCCC(=O)Nc2ccc(-c3cccnc3)cc2)CC1
2.78

Test system Neuronal acetylcholine receptor subunit alpha-7 (Rattus norvegicus); read-out EC50; what value for COc1ccc(N2CCN(CCCCNC(=O)c3ccc(-c4ccccn4)cc3)CC2)c(OC)c1 ?
2.84

Form field: EC50 recorded for Cl.O=C(CCCCN1CCOCC1)Nc1ccc(-c2cccnc2)cc1 with Neuronal acetylcholine receptor subunit alpha-7 (Rattus norvegicus) (enter value)
1.65

Query the reported EC50 for Neuronal acetylcholine receptor subunit alpha-7 (Rattus norvegicus); item: CC(C)Oc1ccccc1-c1ccc(NC(=O)CCCCN2CCCCC2)cc1
0.24

Find EC50 (Neuronal acetylcholine receptor subunit alpha-7 (Rattus norvegicus)) for the entry CC(=O)N1CCCN(CCCCC(=O)Nc2ccc(-c3cccnc3)cc2)CC1
2.66

Give Neuronal acetylcholine receptor subunit alpha-7 (Rattus norvegicus) EC50 for COc1ccc(N2CCN(CCCCNC(=O)c3ccc(-c4ccccc4Cl)cc3)CC2)c(OC)c1
3.11

###

System: Rattus norvegicus
assay-procedure: AUC (last) in Wistar rat at 10 mg/kg, ip
Format: ADME, organism-based, Plasma
Design: time 0 - last, dose 10 mg/kg, route intraperitoneal
reported-conditions: in vivo
value-kind: AUC
Your reply should be a number followed by the unit it is expressed in.

Given Cl.O=C(CCCCN1CCOCC1)Nc1ccc(-c2cccnc2)cc1 , state its recorded AUC.
347 ng·h/mL

###

assay-procedure: Cmax in Wistar rat at 10 mg/kg, ip
Assay type: ADME, organism-based
Parameters: dose 10 mg/kg, route intraperitoneal
reported-conditions: in vivo
value-kind: Cmax
Express the reported value numerically, then name its unit.

Need Cmax of Cl.O=C(CCCCN1CCOCC1)Nc1ccc(-c2cccnc2)cc1 , thanks.
244 ng/mL

###

measured-target: Neuronal acetylcholine receptor subunit alpha-7 (Rattus norvegicus, UniProt Q05941)
Sequence (Q05941 whole entry): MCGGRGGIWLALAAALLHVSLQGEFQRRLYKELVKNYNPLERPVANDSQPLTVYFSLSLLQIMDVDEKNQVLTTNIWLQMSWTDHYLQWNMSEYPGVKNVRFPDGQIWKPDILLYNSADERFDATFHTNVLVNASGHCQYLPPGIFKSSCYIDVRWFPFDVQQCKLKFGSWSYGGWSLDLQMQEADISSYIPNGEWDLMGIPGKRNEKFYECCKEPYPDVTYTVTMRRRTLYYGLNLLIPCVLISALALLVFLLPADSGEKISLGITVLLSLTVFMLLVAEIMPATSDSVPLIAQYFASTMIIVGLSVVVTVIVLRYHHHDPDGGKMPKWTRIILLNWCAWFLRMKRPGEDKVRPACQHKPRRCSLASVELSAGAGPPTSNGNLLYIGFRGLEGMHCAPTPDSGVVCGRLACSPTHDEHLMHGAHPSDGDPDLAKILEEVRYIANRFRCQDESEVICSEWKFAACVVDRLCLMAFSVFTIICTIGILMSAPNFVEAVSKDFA
assay-procedure: Agonist activity at rat alpha7 nAChR expressed in rat GH4C1 cells assessed as calcium flux by FLIPR assay
Format: functional, cell-based, GH4-C1
I'd be grateful if you could share measured EC50 for these entries.

Hello, I am looking for reported EC50 with Neuronal acetylcholine receptor subunit alpha-7 (Rattus norvegicus, UniProt Q05941) for COc1ccc(N2CCN(CCCCNC(=O)c3ccc(-c4ccccc4)cc3)CC2)c(OC)c1 . Could you help?
> 30 µM

Requested read-out EC50, target or system Neuronal acetylcholine receptor subunit alpha-7 (Rattus norvegicus, UniProt Q05941), entry CCN(CC)C(=O)C1CCCN(CCCCC(=O)Nc2ccc(-c3cccnc3)cc2)C1 (stereo not drawn)
> 30 µM

Form: Entry = COc1ccc(N2CCN(CCCCNC(=O)c3ccc([N+](=O)[O-])cc3)CC2)c(OC)c1 | System = Neuronal acetylcholine receptor subunit alpha-7 (Rattus norvegicus, UniProt Q05941) | EC50 = ____
> 30 µM
